Values from the supplement of paper PMC8728848

Item-by-item account of glycan array binding signal (z-score)
target: Man(a1-2)Man(a1-3)[Man(a1-2)Man(a1-6)]Man(a1-6)[Man(a1-2)Man(a1-2)Man(a1-3)]Man; assay: glycan array binding signal (z-score within array); higher = stronger binding; conditions: glycan notation: IUPAC condensed, linker removed
Shown is part of a subset that was picked to be rich in the strongest signals.
Give only the figure.

Worked set:
[
  {
    "BINDER": "SalT (Orysata sativa) (protein) MTLVKIGLWGGNGGSAQDISVPPKKLLGVTIYSSDAIRSIAFNYIGVDGQEYAIGPWGGGEGTSTEIKLGSSEHIKEISGTHGPVYDLADIVTYLKIVTSANNTYEAGVPNGKEFSIPLQDSGHVVGFFGRSGTLIDAIGIYVHPILEQKLISEEDLNSAVDHHHHHH",
    "METRIC": "glycan array binding signal (z-score)",
    "ASSAY_RESULT": -0.304
  },
  {
    "BINDER": "Microvirin-2 (Microcystis aeruginosa) (protein) MPNFSHTCSSINYDPDSTILSAECQARDGEWLPTELRLSDHIGNIDGELQFGDQNFQETCQDCHLEFGDGEQSVWLVCTCQTMDGEWKSTQILLDSQIDNNDSQLEIGGSMPNFSHTCSSINYDPDSTILSAECQARDGEWLPTELRLSDHIGNIDGELQFGDQNFQETCQDCHLEFGDGEQSVWLVCTCQTMDGEWKSTQILLDSQIDNNDSQLEIG",
    "METRIC": "glycan array binding signal (z-score)",
    "ASSAY_RESULT": 6.69
  },
  {
    "BINDER": "ASAL (Allium sativum), P83886 (protein) MGRTTSSPKAMMRIATVAAILTILASTCMARNVLTNGEGLYAGQSLDVEQYKFIMQDDCNLVLYEYSTPIWASNTGVTGKNGCRAVMQRDGNFVVYDVNGRPVWASNSVRGNGNYILVLQKDRNVVIYGSDIWSTGTYRRSVGGAVVMAMNGTVDGGSVIGPVVVNQNVTAAIRKVGTGAA",
    "METRIC": "glycan array binding signal (z-score)",
    "ASSAY_RESULT": 4.09
  },
  {
    "BINDER": "Langerin K313I (Homo sapiens), Q9UJ71 (protein) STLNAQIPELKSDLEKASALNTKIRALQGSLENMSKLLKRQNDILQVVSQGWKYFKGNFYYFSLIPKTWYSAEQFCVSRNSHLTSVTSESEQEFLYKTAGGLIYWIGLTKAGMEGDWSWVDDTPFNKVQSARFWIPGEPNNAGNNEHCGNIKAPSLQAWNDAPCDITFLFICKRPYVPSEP",
    "METRIC": "glycan array binding signal (z-score)",
    "ASSAY_RESULT": 3.54
  },
  {
    "BINDER": "EUL D1A second (Oryza sativa) (protein) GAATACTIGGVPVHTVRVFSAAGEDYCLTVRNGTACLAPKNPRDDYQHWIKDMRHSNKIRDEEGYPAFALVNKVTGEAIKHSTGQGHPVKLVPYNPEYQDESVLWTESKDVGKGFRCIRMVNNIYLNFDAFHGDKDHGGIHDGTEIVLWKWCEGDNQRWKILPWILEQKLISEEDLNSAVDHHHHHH",
    "METRIC": "glycan array binding signal (z-score)",
    "ASSAY_RESULT": -0.985
  }
]

Inquiry: # query: glycan array binding signal (z-score) of entry CAA (Caragana arborescens) (protein) VAVEFDTFDNPDWDPRTKHIGIDVNSIRSNKTTQWGFWNRQVADVDISYEASSKTLNVSLYYPGESYIVTDVVDLKDILPEWVRIGF
Reply text: -0.246

Inquiry: What about RobpsCRA (Robinia pseudoacacia) (protein) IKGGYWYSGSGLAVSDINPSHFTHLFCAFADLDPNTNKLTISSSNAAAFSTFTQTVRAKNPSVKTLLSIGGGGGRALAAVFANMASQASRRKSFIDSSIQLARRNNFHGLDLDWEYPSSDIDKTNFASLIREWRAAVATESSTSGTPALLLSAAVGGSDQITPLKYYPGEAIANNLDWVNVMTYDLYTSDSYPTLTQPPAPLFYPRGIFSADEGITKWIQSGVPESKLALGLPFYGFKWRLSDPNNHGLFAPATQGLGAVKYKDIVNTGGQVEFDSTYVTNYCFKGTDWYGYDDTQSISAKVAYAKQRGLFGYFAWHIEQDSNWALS ?
Reply text: 0.574

Inquiry: What about Banana lectin (Musa acuminata) (protein) MNGAIKVGAWGGNGGSAFDMGPAYRIISVKIFSGDVVDAVDVTFTYYGKTETRHFGGSGGTPHEIVLQEGEYLVGMKGEFGNYHGVVVVGKLGFSTNKKSYGPFGNTGGTPFSLPIAAGKISGFFGRGGDFIDAIGVYLEP ?
Reply text: 7.92

Inquiry: What about Mincle (Bos taurus) (protein) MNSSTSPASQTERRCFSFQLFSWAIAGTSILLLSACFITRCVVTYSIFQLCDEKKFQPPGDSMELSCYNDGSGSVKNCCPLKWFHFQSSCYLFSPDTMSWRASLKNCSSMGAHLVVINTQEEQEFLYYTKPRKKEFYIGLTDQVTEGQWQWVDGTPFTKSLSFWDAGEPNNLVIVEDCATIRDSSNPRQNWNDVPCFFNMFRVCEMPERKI ?
Reply text: 3.54

Inquiry: What about R410P1E11 (Tachypleus tridentatus), TAL2_TACTR (protein) MEKGTPPTHDSDNWMGRAKEIGNGGWDQFQFLFFDPNGYLYAVSNDKLYKASPPQSDTDNWIARATEIGSGGWSGFKFLFFHPNGYLYAVRGQRFYKALPPVSNQD ?
Reply text: -0.751

Inquiry: What about MVL (Microcystis viridis), Q9RHG4 (protein) MASYKVNIPAGPLWSNAEAQQVGPKIAAAHQGNFTGQWTTVVESAMSVVEVELQVENTGIHEFKTDVLAGPLWSNDEAQKLGPQIAASYGAEFTGQWRTIVEGVMSVIQIKYTF ?
Reply text: 7.38

Inquiry: What about PhypaEULS3 (Physcomitrella patens) (protein) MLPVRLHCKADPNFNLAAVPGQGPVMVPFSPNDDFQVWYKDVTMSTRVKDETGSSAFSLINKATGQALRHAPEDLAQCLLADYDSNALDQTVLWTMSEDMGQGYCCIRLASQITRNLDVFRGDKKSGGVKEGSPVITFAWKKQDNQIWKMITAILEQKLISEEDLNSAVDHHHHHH ?
Reply text: -0.367
